The measurements presented in this section are drawn from patent US20180037632A1.

TESTED_ON: T1, recombinant soluble human Seprase (rhuSeprase) (human, UniProt Q12884 29-760)
T1 construct: range 29-760; Secreted from CHO-S cells with a mouse Ig kappa secretion signal (not part of the protein in the assay); also called recombinant human Seprase; soluble fraction of human Seprase
T1 sequence: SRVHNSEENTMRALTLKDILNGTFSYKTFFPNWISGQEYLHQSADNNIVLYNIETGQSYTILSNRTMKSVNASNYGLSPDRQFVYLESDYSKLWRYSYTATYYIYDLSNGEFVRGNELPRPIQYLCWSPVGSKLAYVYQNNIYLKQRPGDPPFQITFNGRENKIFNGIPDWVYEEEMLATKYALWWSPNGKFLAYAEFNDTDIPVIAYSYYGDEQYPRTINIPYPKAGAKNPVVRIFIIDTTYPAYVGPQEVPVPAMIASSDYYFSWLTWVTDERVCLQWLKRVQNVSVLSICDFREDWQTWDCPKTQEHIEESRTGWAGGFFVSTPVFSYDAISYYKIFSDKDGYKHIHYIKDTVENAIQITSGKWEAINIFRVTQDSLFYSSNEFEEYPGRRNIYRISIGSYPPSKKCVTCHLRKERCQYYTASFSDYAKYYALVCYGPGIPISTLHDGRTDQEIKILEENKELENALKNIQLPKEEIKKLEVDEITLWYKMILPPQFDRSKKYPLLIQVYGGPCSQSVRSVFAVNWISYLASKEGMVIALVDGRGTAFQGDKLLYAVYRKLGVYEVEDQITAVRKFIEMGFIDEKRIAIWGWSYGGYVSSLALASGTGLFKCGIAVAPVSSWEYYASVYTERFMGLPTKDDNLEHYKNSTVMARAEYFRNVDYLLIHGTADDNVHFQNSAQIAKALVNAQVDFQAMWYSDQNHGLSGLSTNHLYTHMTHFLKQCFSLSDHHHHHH
METHOD_SUMMARY: SPR (Biacore T100), recombinant human Seprase immobilized, 37-3000 nM MC-FA-010; Seprase on the chip; monovalent MC-FA-010, 37-3000 nM, Biacore T100
pKd: −log10 of the molar value. No end group written: not given here.
PROPERTY: pKd

The reported value for GKCPYSNWTPGRGPDCRRDSDCPGRCICRGNGYCG (designed binder, disulfide (positions not given here), also called soluble monovalent MC-FA-010; solitary MC-FA-010 miniprotein) [MC-FA-010] in terms of pKd is ~6.25
